- system.name: human CD33 N20A (human, UniProt P20138 18-364)
- Sequence (P20138 18-364 N20A limits assumed): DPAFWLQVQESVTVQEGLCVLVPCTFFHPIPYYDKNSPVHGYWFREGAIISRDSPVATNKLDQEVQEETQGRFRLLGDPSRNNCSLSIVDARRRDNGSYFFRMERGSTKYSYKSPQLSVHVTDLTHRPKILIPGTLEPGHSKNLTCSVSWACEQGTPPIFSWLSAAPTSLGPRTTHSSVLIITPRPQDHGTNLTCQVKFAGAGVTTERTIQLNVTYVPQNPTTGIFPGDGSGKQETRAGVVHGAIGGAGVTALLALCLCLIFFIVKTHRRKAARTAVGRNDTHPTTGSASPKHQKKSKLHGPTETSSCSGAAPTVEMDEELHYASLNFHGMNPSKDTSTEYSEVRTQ
- test.method.notes: alanine scan, flow cytometry;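 also: HEK293-T cells transiently expressing single-residue alanine mutants of CD33 (alanine swapped to serine), antibody binding read by fluorescence in duplicate, background-subtracted, expressed relative to wild-type CD33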
# Mean % WT Binding per entry

{"binder": "Refmab #3 (antibody, V domains shown, Full-length format is human IgG1 Fc silent (PG-LALA); The alanine scan used IgG or Fab) VH: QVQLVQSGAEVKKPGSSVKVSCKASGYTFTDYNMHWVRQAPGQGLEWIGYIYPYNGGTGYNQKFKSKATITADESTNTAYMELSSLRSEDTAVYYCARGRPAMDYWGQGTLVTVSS VL: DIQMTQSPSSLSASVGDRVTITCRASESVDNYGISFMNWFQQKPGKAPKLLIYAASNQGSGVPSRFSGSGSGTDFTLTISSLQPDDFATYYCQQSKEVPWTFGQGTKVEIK", "result.unit": "% WT", "Mean % WT Binding": 34.9}
{"binder": "Refmab #2 (antibody, V domains shown, Full-length format is human IgG1 Fc silent (PG-LALA); The alanine scan used IgG or Fab) VH: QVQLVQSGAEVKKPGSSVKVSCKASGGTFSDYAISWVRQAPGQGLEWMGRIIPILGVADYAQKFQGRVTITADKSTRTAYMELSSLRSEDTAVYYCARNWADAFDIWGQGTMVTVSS VL: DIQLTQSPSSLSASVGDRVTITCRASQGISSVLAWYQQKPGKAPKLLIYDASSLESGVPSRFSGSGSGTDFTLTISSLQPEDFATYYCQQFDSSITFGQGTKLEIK", "result.unit": "% WT", "Mean % WT Binding": 121}
{"binder": "Refmab #4 (antibody, V domains shown, Full-length format is human IgG1 Fc silent (PG-LALA); The alanine scan used IgG or Fab) VH: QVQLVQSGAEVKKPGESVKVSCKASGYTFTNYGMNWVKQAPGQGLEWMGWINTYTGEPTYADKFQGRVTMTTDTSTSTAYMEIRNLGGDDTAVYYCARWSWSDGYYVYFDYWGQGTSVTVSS VL: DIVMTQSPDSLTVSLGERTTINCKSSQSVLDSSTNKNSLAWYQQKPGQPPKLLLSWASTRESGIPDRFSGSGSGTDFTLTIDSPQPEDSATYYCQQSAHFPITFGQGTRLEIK", "result.unit": "% WT", "Mean % WT Binding": 158}
{"binder": "Refmab #1 (antibody, V domains shown, Full-length format is human IgG1 (Absolute Antibody Ab00283-10.0); The alanine scan used IgG or Fab; also called hP67.6) VH: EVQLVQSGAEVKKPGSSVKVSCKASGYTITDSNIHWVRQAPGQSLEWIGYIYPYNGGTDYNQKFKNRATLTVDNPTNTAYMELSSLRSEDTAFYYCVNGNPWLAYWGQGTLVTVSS VL: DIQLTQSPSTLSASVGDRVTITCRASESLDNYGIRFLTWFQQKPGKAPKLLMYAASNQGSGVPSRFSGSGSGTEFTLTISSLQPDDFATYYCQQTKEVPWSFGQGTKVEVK", "result.unit": "% WT", "Mean % WT Binding": 1.2}
